biological target: Human recombinant CD38 (Homo sapiens); experiment: CD38 hydrolase inhibition assay; settings: glycohydrolase activity, 0.2 ng/μL CD38, 100 μM ε-NAD substrate, fluorescence excitation 300 nm / emission 410 nm
Sequence (P28907 whole entry): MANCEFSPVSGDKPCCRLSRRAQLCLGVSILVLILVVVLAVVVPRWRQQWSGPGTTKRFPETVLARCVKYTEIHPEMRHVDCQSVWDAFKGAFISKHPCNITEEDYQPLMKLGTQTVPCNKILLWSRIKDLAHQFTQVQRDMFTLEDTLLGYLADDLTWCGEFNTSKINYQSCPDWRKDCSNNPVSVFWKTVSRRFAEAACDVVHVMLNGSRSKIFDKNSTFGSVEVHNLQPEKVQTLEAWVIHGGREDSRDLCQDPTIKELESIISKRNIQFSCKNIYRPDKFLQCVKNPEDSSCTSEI
pIC50: −log10 of the molar value.
Observation type: pIC50

> print(dat)
                                chem.smiles   measurement
1  COCCOc1cc(C(=O)Nc2ccc3[nH]ncc3c2)cc(-n2ccnc2)c1        > 7.00
2  COCCOc1cc(-n2ccnc2)cc(C(=O)Nc2ccnc(C(F)(F)F)c2)c1F  6.00 to 7.00
3  COCCOc1cc(C(=O)Nc2ccnc(C(F)(F)F)c2)cc(-c2cccnc2)c1        < 6.00
4  COc1cc(C(=O)Nc2ccnc(C(F)(F)F)c2)cc(-n2ccnc2)c1        > 7.00
5  COCCOc1cc(-n2ccnc2)cc(C(=O)Nc2ccnc(C(F)(F)F)c2)c1Cl        < 6.00
6  COCCOc1cc(C(=O)Nc2ccc(C(F)(F)F)nc2)cc(-n2ccnc2)c1        > 7.00
7  COCCOc1cc(C(=O)Nc2cncc(Cl)c2)cc(-n2ccnc2)c1        > 7.00

Kindly review the next molecule as well.
Q. pIC50 for `COCCOc1cc(C(=O)Nc2ccc3cn[nH]c3c2)cc(-n2ccnc2)c1` ?
A. > 7.00
